These data points were gathered from patent US20220356230A1.

assay system: T1, MERS-CoV (SARS-CoV-2) Spike Protein S2 (aa 726-1296, His Tag) (Sino 40070-[change]) (MERS-CoV, UniProt K9N5Q8 726-1296)
T1 sequence: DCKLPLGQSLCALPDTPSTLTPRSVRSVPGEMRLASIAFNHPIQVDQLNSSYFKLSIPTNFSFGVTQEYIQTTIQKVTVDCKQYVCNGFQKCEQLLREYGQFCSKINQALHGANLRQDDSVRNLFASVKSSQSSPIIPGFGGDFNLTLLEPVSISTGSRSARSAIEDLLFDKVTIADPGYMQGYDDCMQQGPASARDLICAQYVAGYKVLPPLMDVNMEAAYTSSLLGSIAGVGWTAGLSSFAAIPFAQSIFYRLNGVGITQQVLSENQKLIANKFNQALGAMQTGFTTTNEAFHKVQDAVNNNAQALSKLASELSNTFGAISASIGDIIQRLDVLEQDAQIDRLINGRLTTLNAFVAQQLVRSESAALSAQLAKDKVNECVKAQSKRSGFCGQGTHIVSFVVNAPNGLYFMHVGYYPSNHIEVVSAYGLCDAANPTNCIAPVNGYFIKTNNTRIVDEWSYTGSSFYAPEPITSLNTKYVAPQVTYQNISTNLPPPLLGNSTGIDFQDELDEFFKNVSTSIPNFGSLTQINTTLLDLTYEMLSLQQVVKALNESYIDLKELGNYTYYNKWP
procedure text: Luminex bead binding, antigen on microspheres, antibody supernatant
property: MFI (MFI)
Give bare numbers, in MFI.

- binder: "mAb10987 (antibody, V domains shown) VH: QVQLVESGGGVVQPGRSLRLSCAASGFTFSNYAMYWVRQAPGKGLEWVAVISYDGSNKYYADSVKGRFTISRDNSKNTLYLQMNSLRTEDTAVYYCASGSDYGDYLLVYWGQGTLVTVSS VL: QSALTQPASVSGSPGQSITISCTGTSSDVGGYNYVSWYQQHPGKAPKLMIYDVSKRPSGVSNRFSGSKSGNTASLTISGLQSEDEADYYCNSLTSISTWVFGGGTKLTVLG"
  MFI (MFI): 23
- binder: "mAb10955 (antibody, V domains shown) VH: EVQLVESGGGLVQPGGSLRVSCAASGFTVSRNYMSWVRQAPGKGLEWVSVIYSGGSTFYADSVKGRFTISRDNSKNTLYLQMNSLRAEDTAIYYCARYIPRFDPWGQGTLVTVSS VL: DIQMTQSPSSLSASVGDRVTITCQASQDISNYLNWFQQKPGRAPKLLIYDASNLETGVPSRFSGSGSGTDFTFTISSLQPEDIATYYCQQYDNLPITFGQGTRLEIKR"
  MFI (MFI): 18

Input: Given mAb10971 (antibody, V domains shown) VH: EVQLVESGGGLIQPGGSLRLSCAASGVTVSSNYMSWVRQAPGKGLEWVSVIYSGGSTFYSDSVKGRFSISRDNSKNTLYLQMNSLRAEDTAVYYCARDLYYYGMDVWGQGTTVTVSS VL: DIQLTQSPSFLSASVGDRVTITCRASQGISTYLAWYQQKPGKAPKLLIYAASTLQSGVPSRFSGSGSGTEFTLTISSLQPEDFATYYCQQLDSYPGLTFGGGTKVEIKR , state its recorded MFI.
Output: 13
